Assign normalised response to each entry below.
# Tested on: MDA-MB-231
# EXPERIMENT: normalised response (% of control), CellTiter-Glo; higher = more viable cells (100 = DMSO, 0 = benzethonium chloride kill control)
# RUN PARAMETERS: incubation time: 72 h

Give normalised response for the following compound: O=P1(NCCCl)OCCCN1CCCl (stereo not drawn) [Ifosfamide] (10000 nM) 90.5%

Name the recorded normalised response of the compound listed here: CCC(C)(C)C(=O)O[C@H]1C[C@@H](C)C=C2C=C[C@H](C)[C@H](CC[C@@H]3C[C@@H](O)CC(=O)O3)[C@H]21 [Simvastatin] (10000 nM) 30%

Give the value of normalised response reported for the following: Cc1ccc(C(=O)Nc2ccc(CN3CCN(C)CC3)c(C(F)(F)F)c2)cc1C#Cc1cnc2cccnn12 [Ponatinib] (1000 nM) 15.5%

Please give measured normalised response of the following entry: Cn1c(CCCC(=O)O)nc2cc(N(CCCl)CCCl)ccc21 [Bendamustine] (10000 nM) 109%

Give normalised response for the following compound: CC(C)Cn1cnc2c(N)nc3ccccc3c21 [Imiquimod] (2500 nM) 98.2%

State its normalised response for this compound: CN[C@@H]1C[C@H]2O[C@@](C)([C@@H]1OC)n1c3ccccc3c3c4c(c5c6ccccc6n2c5c31)C(=O)N[C@H]4O [UCN-01] (10000 nM) 1.54%

Determine from records and report normalised response for C[C@]12CC[C@@H]3c4ccc(O)cc4C[C@@H](CCCCCCCCC[S+]([O-])CCCC(F)(F)C(F)(F)F)[C@H]3[C@@H]1CC[C@@H]2O (stereo partly drawn) [Fulvestrant] (1000 nM) 98.9%

Using known records, supply normalised response for CCC1(c2ccc(N)cc2)CCC(=O)NC1=O (stereo not drawn) [Aminoglutethimide] (10000 nM) 103%
